# TESTED SYSTEM: PpCHK2 (Physcomitrium patens, UniProt A0A068JG96)
# Sequence (A0A068JG96 entry or part of it): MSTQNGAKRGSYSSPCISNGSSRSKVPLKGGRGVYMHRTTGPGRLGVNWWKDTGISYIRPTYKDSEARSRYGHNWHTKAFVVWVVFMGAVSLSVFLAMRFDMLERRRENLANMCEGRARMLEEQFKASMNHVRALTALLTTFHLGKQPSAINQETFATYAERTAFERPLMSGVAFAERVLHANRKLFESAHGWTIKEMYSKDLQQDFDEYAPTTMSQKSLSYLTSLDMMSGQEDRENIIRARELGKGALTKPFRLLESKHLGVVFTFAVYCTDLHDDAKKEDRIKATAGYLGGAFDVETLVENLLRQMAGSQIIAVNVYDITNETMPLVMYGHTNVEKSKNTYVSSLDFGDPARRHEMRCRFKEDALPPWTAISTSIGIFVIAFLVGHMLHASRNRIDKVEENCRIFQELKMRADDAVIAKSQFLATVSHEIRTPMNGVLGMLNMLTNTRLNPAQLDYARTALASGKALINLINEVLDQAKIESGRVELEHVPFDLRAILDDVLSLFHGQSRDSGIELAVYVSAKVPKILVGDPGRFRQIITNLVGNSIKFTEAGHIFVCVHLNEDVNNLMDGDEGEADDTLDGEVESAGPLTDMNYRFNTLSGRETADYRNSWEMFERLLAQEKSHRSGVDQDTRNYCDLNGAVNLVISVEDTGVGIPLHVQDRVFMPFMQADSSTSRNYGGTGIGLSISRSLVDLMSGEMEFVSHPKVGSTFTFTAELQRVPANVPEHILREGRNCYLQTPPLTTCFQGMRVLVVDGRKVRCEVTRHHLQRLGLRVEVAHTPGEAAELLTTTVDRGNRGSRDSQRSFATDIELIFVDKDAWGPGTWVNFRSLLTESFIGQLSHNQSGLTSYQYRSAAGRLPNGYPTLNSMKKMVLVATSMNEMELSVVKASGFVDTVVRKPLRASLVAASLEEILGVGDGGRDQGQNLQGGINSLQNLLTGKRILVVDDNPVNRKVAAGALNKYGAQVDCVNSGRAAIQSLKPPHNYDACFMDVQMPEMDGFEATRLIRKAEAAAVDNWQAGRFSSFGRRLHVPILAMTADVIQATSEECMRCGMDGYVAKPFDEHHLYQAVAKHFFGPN
# PROCEDURE DETAILS: competition of unlabeled CKs with 3H-iP, tobacco leaf microsomes expressing the receptor
# Assay type: binding
# CONDITION INFO: PpCHK2; competition with 3H-iP; alternative calculation method (Appendix A); ± SE; read-out: KD of CK-receptor complexes
molecules and their reported pKd
When answering, recall that pKd equals minus log10 of the concentration in mol/L, and write that number alone.

> print(dat)
                                   molecule  measure.name  value.observed
1                    O=C(Nc1ccccc1)Nc1cnns1           pKd            7.92
2  CC(CO)CCNc1ncnc2nc[nH]c12 (centres unmarked) [DZ, dihydrozeatin]           pKd            6.30
3  C/C(=C\CNc1ncnc2[nH]cnc12)CO [tZ, trans-zeatin]           pKd            7.91
4                 CC(C)=CCNc1ncnc2nc[nH]c12           pKd            9.05

Now for another entry.
Summary line: c1ccc(CNc2ncnc3nc[nH]c23)cc1 , PpCHK2 (Physcomitrium patens, UniProt A0A068JG96), reported pKd = 7.83

###

# TESTED SYSTEM: PaCHK1
# PROCEDURE DETAILS: competition of unlabeled CKs with 3H-iP, tobacco leaf microsomes expressing the receptor
# Type: binding, Picea abies
# CONDITION INFO: PaCHK1; competition with 3H-iP; Cheng-Prusoff calculation method; ± SE; read-out: KD of CK-Receptor Complexes
MEASURE NAME: Kd (nM)
# unit: nM | format: bare number

Known results for molecules:
> print(dat)
                                   molecule  value.observed
1                 CC(C)=CCNc1ncnc2nc[nH]c12             3.6
2                    O=C(Nc1ccccc1)Nc1cnns1             6.7
3  CC(CO)CCNc1ncnc2nc[nH]c12 (stereo not shown) [DZ, dihydrozeatin]             377

Now for another entry.
Summary line: c1ccc(CNc2ncnc3nc[nH]c23)cc1 , PaCHK1, reported Kd = 61.9

###

# TESTED SYSTEM: SmCHK4a (Selaginella moellendorffii, UniProt D8R9F4)
# Sequence (D8R9F4 entry or part of it): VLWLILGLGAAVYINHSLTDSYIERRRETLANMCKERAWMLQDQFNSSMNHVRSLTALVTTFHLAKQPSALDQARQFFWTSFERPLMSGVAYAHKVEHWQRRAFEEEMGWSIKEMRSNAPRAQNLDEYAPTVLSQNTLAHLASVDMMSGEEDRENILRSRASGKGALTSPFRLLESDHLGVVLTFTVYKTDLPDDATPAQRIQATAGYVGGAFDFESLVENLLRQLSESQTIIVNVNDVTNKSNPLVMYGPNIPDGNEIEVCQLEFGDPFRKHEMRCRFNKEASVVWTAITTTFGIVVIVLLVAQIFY
# PROCEDURE DETAILS: direct 3H-iP binding (saturation, pH dependence), tobacco leaf microsomes
# CONDITION INFO: saturation curve of 3H-iP specific binding
MEASURE NAME: pKd
When answering, recall that pKd equals minus log10 of the concentration in mol/L, and write that number alone.

Value of measured pKd for the entry CC(C)=CCNc1ncnc2nc[nH]c12 : 8.81

###

# TESTED SYSTEM: PpCHK1 (Physcomitrium patens, UniProt A0A068JFF6)
# Sequence (A0A068JFF6 entry or part of it): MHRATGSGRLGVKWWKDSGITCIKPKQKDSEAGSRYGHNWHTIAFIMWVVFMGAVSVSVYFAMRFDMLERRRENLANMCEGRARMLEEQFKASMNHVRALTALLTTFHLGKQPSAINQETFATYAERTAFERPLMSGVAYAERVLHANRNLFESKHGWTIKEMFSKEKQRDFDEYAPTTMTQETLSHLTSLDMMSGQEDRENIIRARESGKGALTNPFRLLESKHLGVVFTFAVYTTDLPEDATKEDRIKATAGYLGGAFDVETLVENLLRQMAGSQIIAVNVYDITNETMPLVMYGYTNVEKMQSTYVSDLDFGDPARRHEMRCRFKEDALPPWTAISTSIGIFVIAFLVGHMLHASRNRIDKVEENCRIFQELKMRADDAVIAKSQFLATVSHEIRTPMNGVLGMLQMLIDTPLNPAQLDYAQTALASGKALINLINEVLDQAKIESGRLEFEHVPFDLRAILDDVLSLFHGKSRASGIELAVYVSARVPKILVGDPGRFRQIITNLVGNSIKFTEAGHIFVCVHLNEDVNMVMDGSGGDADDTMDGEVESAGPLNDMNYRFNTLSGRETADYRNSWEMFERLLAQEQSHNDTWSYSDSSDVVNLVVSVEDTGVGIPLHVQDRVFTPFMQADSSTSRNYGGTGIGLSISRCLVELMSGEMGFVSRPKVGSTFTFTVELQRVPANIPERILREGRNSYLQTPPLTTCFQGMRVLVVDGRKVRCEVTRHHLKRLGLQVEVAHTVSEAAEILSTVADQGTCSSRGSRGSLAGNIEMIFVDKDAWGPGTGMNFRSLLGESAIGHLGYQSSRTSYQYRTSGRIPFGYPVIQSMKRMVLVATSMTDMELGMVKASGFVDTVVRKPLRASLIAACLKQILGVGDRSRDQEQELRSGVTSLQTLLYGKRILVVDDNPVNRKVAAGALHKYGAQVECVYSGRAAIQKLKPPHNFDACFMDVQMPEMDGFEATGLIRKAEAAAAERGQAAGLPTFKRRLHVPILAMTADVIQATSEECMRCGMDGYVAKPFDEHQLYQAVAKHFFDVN
# PROCEDURE DETAILS: competition of unlabeled CKs with 3H-iP, tobacco leaf microsomes expressing the receptor
# Type: binding
# CONDITION INFO: PpCHK1; competition with 3H-iP; alternative calculation method (Appendix A); ± SE; read-out: KD of CK-receptor complexes
MEASURE NAME: pKd
When answering, recall that pKd equals minus log10 of the concentration in mol/L, and write that number alone.

Known results for molecules:
> print(dat)
                       molecule  value.observed
1     CC(C)=CCNc1ncnc2nc[nH]c12            8.92
2  c1ccc(CNc2ncnc3nc[nH]c23)cc1            7.89

Value of measured pKd for the entry CC(CO)CCNc1ncnc2nc[nH]c12 (stereo not shown) [DZ, dihydrozeatin] : 6.17

Value of measured pKd for the entry C/C(=C\CNc1ncnc2[nH]cnc12)CO [tZ, trans-zeatin] : 7.61

###

# TESTED SYSTEM: SmCHK4a (Selaginella moellendorffii)
# PROCEDURE DETAILS: competition of unlabeled CKs with 3H-iP, tobacco leaf microsomes expressing the receptor
# Format: binding
# CONDITION INFO: read-out: KD of CK-receptor complexes
MEASURE NAME: Kd (nM)
# unit: nM | format: bare number

Summary line: C/C(=C/CNc1ncnc2nc[nH]c12)CO [cZ, cis-zeatin] , SmCHK4a (Selaginella moellendorffii), reported Kd = 20

###

# TESTED SYSTEM: PpCHK2 (Physcomitrium patens, UniProt A0A068JG96)
# PROCEDURE DETAILS: direct 3H-iP binding (saturation, pH dependence), tobacco leaf microsomes
# CONDITION INFO: saturation curve of 3H-iP specific binding
MEASURE NAME: pKd
When answering, recall that pKd equals minus log10 of the concentration in mol/L, and write that number alone.

Value of measured pKd for the entry CC(C)=CCNc1ncnc2nc[nH]c12 [iP, isopentenyladenine] : 8.84

###

# TESTED SYSTEM: PpCHK1 (Physcomitrium patens, UniProt A0A068JFF6)
# PROCEDURE DETAILS: competition of unlabeled CKs with 3H-iP, tobacco leaf microsomes expressing the receptor
# Assay type: binding
# CONDITION INFO: read-out: KD of CK-Receptor Complexes
MEASURE NAME: Kd (nM)
# unit: nM | format: bare number

Value of measured Kd for the entry C/C(=C/CNc1ncnc2nc[nH]c12)CO [cZ, cis-zeatin] : 103

###

# TESTED SYSTEM: SmCHK4a (Selaginella moellendorffii, UniProt D8R9F4)
# PROCEDURE DETAILS: competition of unlabeled CKs with 3H-iP, tobacco leaf microsomes expressing the receptor
# Type: binding
# CONDITION INFO: SmCHK4a; competition with 3H-iP; Cheng-Prusoff calculation method; ± SE; read-out: KD of CK-Receptor Complexes
compounds and their reported Kd
# unit: nM | format: bare number

> print(dat)
               sample.smiles  units  value.observed
1  CC(C)=CCNc1ncnc2nc[nH]c12     nM             1.6

Value of measured Kd for the entry c1ccc(CNc2ncnc3nc[nH]c23)cc1 : 6.91

###

# TESTED SYSTEM: PaCHK2
# PROCEDURE DETAILS: competition of unlabeled CKs with 3H-iP, tobacco leaf microsomes expressing the receptor
# Format: binding, Picea abies
# CONDITION INFO: read-out: KD of CK-Receptor Complexes
compounds and their reported pKd
When answering, recall that pKd equals minus log10 of the concentration in mol/L, and write that number alone.

> print(dat)
                                   compound  value.observed
1  C/C(=C/CNc1ncnc2nc[nH]c12)CO [cZ, cis-zeatin]            7.75

Now for another entry.
Value of measured pKd for the entry C/C(=C\CNc1ncnc2[nH]cnc12)CO [tZ, trans-zeatin] : 8.98
